B1: TPR t1 (parent)
chain: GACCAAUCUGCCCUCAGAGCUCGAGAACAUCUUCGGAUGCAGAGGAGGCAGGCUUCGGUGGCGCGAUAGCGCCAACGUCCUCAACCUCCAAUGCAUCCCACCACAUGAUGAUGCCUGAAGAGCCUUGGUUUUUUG

# Variants of: B1
# TEST SUMMARY: polymerase ribozyme fitness, log enrichment relative to wild type (log ratio); higher = more active; in vitro selection for triplet polymerase activity
Classification field. Basis: polymerase ribozyme fitness (log ratio). Definitions: lower band: < -5; central band: ≥ -5 and < -2; upper band: ≥ -2

Would you mind sorting GACCAAUCUGGUCUCAGAGCUCGAGAACAUCUUCGGAUGCACAGGAGGCAGGCUUCGGUGGCGCGAUACCGCCAACGUCCUCAACCUCCAAUGCAUCCCACCACAUGAUGAUGCCUGAAGAGCCUUGGUUUUUUG [C11G C12U G42C G69C] into the appropriate category? lower band

// return the class label for GACCAAUCUGCCCUAAGAGCUCGAGAACAUCUACGGAUGCAGAGGAGGCAGGCUUCGGUGGCGCGAUAGCGCCAACGUCCUCAACCUCCAAUGCAUCCCACCACAUGAUGAUGCCUAAAGAGCCUUGGUUUUUUG [C15A U33A G117A] lower band

Class (by measured polymerase ribozyme fitness (log ratio)) for GACCAAUCUGCCCUCAGAGCUCGAGAACAUCUUCGGAUGCAGAGGAGGCAGGCUUCGGUGACGCGAUAGCGCCAACGUCCGCAACCUCCAAUGCAUCCCACCACUUGAUGAGGCCUGAAGAGCCUUGGUUUUUUG [G61A U81G A105U U112G] lower band

Given GACCAACCUGCCCUCAGAGCUCGAGAACAUCUUUGGAUGCAGAGGAGGACGGCUUCGGUGGCGCGAUAGCGCCAACGUCCUCAACCUCCAAUGCAUCCCACCACAUGAUGAUGCCUGAAGAGCCUUGGUUUUUUG [U7C C34U C49A A50C] , name the class its polymerase ribozyme fitness (log ratio) places it in. lower band

Which polymerase ribozyme fitness (log ratio) category applies to GACCAAUCUGCCCUCAGGGCUCGAGAACAUCUUCGGAUGCAGAGGAGGCAGGCUUCGGUGGCGCGAUAGCGCCAACGUCCUCAACCUCCAAUGCAUCCCACCACAUGAUGAUGCCUGAAGAGCCUUGGUGUUUUG [A18G U130G] here? central band

Any idea which band GACCAAUCUGCCCUCAGAGCUCGAGAACAUCUUCGGAUGCAGAGGAGGCAGGCUUCGGUGGCGCGAUAUCGCCAACGUCCUCAACCUCCAAUGCAUCCCACCACAUGAUGAUGCCUGAAGAGCCUGGGUUUUUUG [G69U U126G] is in? upper band

Field: class (polymerase ribozyme fitness (log ratio)) — entry: GACCAAUCUGCCCUCAGAGCUCGAGAACAUCUUCGGAUGCAGAGGAGGCAGCCUUCGGUGGCGCGAUAGAGCCAACGUCCUCAACCUCCAAUGCAUCCCACCACAUGAUCAUGCCUGAAGAGCCUUGGUUUUUUG [G52C C70A G110C] lower band

For GACCAAACUGCCCUCAGAGCUCGAGAACAUCUUCGGAUGCAGAGUAGGCAGGCUUGGGUGGCGCGGUAGCGCCAACGUCCUCAACCUCCAAUGCAUCCCACCACAUGAUGAUGCCUGAAGAGCCUUGGUUUUUUG [U7A G45U C56G A66G] , which polymerase ribozyme fitness (log ratio) bin applies? central band

Class (by measured polymerase ribozyme fitness (log ratio)) for GACCAAUCUGCCCUCAGAGCUCGAGAACGUCUUCGGAUGCAGAGGAGGCAGGCUUCGCUGGCGCGAUAGCGCCAACGUCCUCAACCUCCAAUGCAUCCCACCACAUGAUGAUGCCUGAAGAGCCUUGGUUUUUUG [A29G G58C] upper band

Category lookup for the variant GACCAAUCUGCCCUCAGAGCUCGAGAACAUCUUCGGAUGCAGAGGAGGCAGGCUUCGGUGGCGCGAUAGCGCCAACGUCCUCAACCUCCAAUGCAUCCCACCACAUGAUGAUGACGGAAGAGCCUUGGUUUUUUG [C114A U116G] central band

Please classify: GACCAAUCUGCCAUCAGAGCUCGAGAACAUCUUCGGAUGCAGAGGAGGCAGGCUUCGGUGGCGCGAUAGCGCCAACGUCCUCAACCUCCAAUGCAUCCCACCACAUGAUGAGGCCUGAAGAGCCUUGGUUUUUUG [C13A U112G] upper band

Hi, small favor: classify GACCAAUCUGCCCUCAGAGCUCGAGAACAUCUUCGGAUGCACAGGAGUCAGGCUUCGGUGGCGCGAUAGAGCCAACGUCCUCAACCUCCAAUGCAUCCCACCACAUGAUGAUGCCUGAAUAGCCUUGGUUUUUUG [G42C G48U C70A G120U] by its polymerase ribozyme fitness (log ratio) when you get a moment. lower band

Tag the class for GACCAAUCUGCCCUCAGAGCUCGAGAACAUCUUCGGAUGCAGAGGAGGCAGUAUUCGGUGGCGCGAUAGCGCUAACGUCCUCAACCUCCAAUGCAUCCCACCACAUGAUGAUGCCUGAAGAGCCUUGGUUUUUUG [G52U C53A C73U] upper band

Could you place GACCAAUCUGCCCUCAGAGCUCGAGAACAUCUUCGUAUGUAGCGGUGCCAGGCUUCGGUGGCGCGAUAGCGCCAACGUCCUCAACCUCCAAUGCAUCCCACCACAUGAUGAUGCCUGAAGAGCCUUGGUUUUUUG [G36U C40U A43C A46U G48C] in its proper category? Many thanks. lower band

Sort into band: GACCAAUCUGCCCACAGAUCUCGAGAACAUCGUCGGAUGCAGAGGAGGCAGGCUUCGGUGGCGCGAUAGCGCCAACGUCCGCAACCUCCAAUGCAUCCCGCCACAUGAUGAUGCCUGAACAGCCUUGGUUUUUUG [U14A G19U U32G U81G A100G G120C] lower band

Record GACCAAUCUGCCCUCUGAGCUCGAGAACAUCUUCGGAUGCGGAGGAGGCAGGCUUCGGUGGCUCGAUAGCGCCAACGUCCUCAACCUCCAAUGCAUCCCACCACAUGAUGAUGCUUGAAGAGCCUUGGUUUUUUG [A16U A41G G63U C115U] — which class? central band

Field: class (polymerase ribozyme fitness (log ratio)) — entry: GACCAUUCUGCCCUCAGAGCUCGAGAACAUCUUCGGAUGCAGAGGAGGCAGGCUUCGGUGGAGCGAUAGCGCCAACGUCCUCAACCUCCAAUGCAUCCCACCACAUGAUGAUGCCUGAAGAGCCUUGGUUUUUUG [A6U C62A] upper band

Returns: class label. Input: GACCAAUCUGCCCUCAGAGCUCGAGAACAUCUUCGGAUGCAGAGGAGGCAGGCUUCGGUGGCGCGAUAGCGCCAACGUCCUCAACCUCCAAUUCAUCCCACCACAUGAUGAUGCCUGAAGAGCCUUGGUUUUUUG [G93U] upper band

Lab note: which band did GACCAAUCUGCCCUCAGAGCUCGAGAACAUCUACGGAUGCAGAGGAGGCAGGCUUCGGUGGCGCGAUAGCGCCAACGUCCUCAACCUCCAAUGCAUCCCACCACAUGAUGAUGCCUGAAUAGCCUUGGUUUUUUG [U33A G120U] land in? lower band

Source: the RNAGym collection of RNA variant scans (doi:10.1073/pnas.2313332121)
